# STUDY SYSTEM: bile salt export pump (BSEP) (Homo sapiens)
# Sequence (O95342 whole entry): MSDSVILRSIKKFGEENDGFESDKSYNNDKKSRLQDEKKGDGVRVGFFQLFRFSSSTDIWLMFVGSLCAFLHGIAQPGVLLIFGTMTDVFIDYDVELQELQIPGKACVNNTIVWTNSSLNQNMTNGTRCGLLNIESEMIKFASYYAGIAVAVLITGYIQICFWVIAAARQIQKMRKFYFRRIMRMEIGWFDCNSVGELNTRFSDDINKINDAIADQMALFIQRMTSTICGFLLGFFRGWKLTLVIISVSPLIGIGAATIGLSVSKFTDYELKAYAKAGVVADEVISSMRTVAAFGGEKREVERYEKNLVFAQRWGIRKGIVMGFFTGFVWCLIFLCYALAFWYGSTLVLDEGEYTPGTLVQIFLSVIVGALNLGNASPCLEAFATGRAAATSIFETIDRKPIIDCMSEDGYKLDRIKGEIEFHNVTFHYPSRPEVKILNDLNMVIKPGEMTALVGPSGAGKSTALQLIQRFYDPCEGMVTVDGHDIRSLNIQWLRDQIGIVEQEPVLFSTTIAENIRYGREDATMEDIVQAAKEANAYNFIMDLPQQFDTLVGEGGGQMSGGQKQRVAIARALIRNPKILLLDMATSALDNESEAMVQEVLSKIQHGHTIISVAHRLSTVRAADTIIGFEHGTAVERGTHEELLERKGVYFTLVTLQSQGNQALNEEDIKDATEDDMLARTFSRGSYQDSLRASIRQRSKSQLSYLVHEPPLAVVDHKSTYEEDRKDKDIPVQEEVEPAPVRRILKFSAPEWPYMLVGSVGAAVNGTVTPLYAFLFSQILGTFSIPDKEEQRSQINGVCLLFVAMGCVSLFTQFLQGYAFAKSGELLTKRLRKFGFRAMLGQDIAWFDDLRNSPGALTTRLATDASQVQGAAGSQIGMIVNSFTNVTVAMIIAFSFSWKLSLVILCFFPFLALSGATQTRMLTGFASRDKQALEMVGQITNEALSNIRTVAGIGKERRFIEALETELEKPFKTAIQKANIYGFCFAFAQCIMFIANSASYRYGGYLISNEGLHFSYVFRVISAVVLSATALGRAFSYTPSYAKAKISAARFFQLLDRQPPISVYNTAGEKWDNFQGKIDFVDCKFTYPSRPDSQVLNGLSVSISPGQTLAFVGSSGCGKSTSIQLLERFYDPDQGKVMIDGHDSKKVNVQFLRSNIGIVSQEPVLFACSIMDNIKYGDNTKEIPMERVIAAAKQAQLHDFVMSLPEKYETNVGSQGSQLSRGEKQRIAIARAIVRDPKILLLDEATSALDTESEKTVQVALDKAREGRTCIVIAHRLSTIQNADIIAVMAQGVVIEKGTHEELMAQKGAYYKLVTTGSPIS
# Assay type: biochemical
OBSERVED PROPERTY: pIC50
Please keep in mind that pIC50 is minus log10 of the molar concentration; only the number is needed.

Entry Cc1cc(OCCCS(C)(=O)=O)cc(C)c1-c1cccc(COc2ccc3c(c2)OC[C@H]3CC(=O)O)c1 [TAK-875] ; assay system bile salt export pump (BSEP) (Homo sapiens); pIC50 recorded at 4.84

Just for reference, paper PMC5414857 is where these values come from.
